tested on: specimen of rat aorta; test: Vasorelaxation activity in a specimen of rat aorta: contraction caused by TEA and BaCl2; details: TEA (30-45 mM) and BaCl2 (0.3 mM) contraction, 3 μM, read-out: constriction inhibitory ratio
Decide by inhibition at 3 µM: equal to or exceeding 60% means True, less means False.

*Q* Hi team, for Cc1cc(O)c(/C(=N/OC(C)(C)C)c2ncccc2O)cc1C , is the recorded inhibition at 3 µM at or above 60%?
*A* False

*Q* Ok, now Cc1cc(O)c(/C(=N/OC(C)(C)C)c2c(O)ccc[n+]2[O-])cc1Br
*A* True

*Q* Ok, now CC(C)(C)O/N=C(/c1cc(Br)c(Cl)cc1O)c1ncccc1O
*A* True

*Q* Ok, now CC(C)(C)O/N=C(/c1cc([N+](=O)[O-])ccc1O)c1c(O)ccc[n+]1[O-]
*A* False

*Q* Ok, now CC(C)(C)O/N=C(/c1cc(F)c(C#N)cc1O)c1c(O)ccc[n+]1[O-]
*A* True

*Q* Ok, now COc1cc(O)c(/C(=N/OC(C)(C)C)c2ncccc2O)cc1Br
*A* True

*Q* Ok, now CC(C)(C)O/N=C(/c1cc(C#N)ccc1O)c1ncccc1O
*A* False

* * *

I'd be grateful if you could share measured inhibition at 1 µM for these entries.
test system: specimen of rat aorta; assay: Vasorelaxation activity in a specimen of rat aorta: contraction caused by KCl; conditions: 1 μM, read-out: constriction inhibitory ratio
Give just the numeric value; % need not be written.

*Q* Item under review: CC(C)(C)O/N=C(/c1cc(F)ccc1O)c1ncccc1O [Compound 8] . Reported inhibition at 1 µM?
*A* -9

*Q* Ok, now Cc1cc(O)c(/C(=N/OC(C)(C)C)c2ncccc2O)cc1Br [Compound 61]
*A* 4

*Q* Ok, now CC(C)(C)O/N=C(/c1cc(F)c(Cl)cc1O)c1ncccc1O [Compound 40]
*A* 0

*Q* Ok, now CC(C)(C)O/N=C(/c1cc(Br)ccc1O)c1c(O)ccc[n+]1[O-] [Compound 63]
*A* 0

*Q* Ok, now CC(C)(C)C/N=C(/c1cc(Br)ccc1O)c1cccc[n+]1[O-] [Compound 105]
*A* 4

*Q* Ok, now Cc1cc(O)c(/C(=N/OC(C)(C)C)c2ncccc2O)cc1F [Compound 114]
*A* 0

*Q* Ok, now CC(C)(C)O/N=C(/c1cc(Br)c(F)cc1O)c1c(O)ccc[n+]1[O-] [Compound 69]
*A* 0

*Q* Ok, now CC(C)(C)O/N=C(/c1cc(Br)ccc1O)c1ncccc1O [Compound 6]
*A* 5

*Q* Ok, now Cc1cc(O)c(/C(=N/OC(C)(C)C)c2c(O)ccc[n+]2[O-])cc1Br [Compound 67]
*A* 0

*Q* Ok, now CC(C)(C)O/N=C(/c1cc(Cl)c(Cl)cc1O)c1c(O)ccc[n+]1[O-] [Compound 122]
*A* 0

*Q* Ok, now CC(C)(C)O/N=C(/c1cc(Br)c(Cl)cc1O)c1ncccc1O [Compound 38]
*A* 0

*Q* Ok, now CC(C)O/N=C(/c1cc(Br)ccc1O)c1ncccc1O [Compound 19]
*A* -5

*Q* Ok, now CC(C)(C)O/N=C(/c1cc(F)c(C#N)cc1O)c1c(O)ccc[n+]1[O-] [Compound 177]
*A* 0

*Q* Ok, now CC(C)(C)O/N=C(/c1cc(Cl)ccc1O)c1ncccc1Cl [Compound 147]
*A* 16

*Q* Ok, now CC(C)(C)O/N=C(/c1cc(F)c(F)cc1O)c1cccc[n+]1[O-] [Compound 100]
*A* 4

*Q* Ok, now CC(C)(C)O/N=C(/c1cc(Br)c(C#N)cc1O)c1c(O)ccc[n+]1[O-] [Compound 129]
*A* 18

*Q* Ok, now CC(C)(C)ON=C(c1cc(Cl)ccc1O)c1ncccc1O [Compound 14]
*A* 2

*Q* Ok, now Cc1cc(/C(=N/OC(C)(C)C)c2ncccc2O)c(O)cc1F [Compound 111]
*A* 0

*Q* Ok, now CC(C)(C)O/N=C(/c1cc(Br)c(Cl)cc1O)c1c(O)ccc[n+]1[O-] [Compound 119]
*A* 5

*Q* Ok, now CC(C)(C)O/N=C(/c1cc(Cl)c(Cl)cc1O)c1cccc[n+]1[O-] [Compound 95]
*A* 3

*Q* Ok, now CC(C)(C)O/N=C(/c1cc(Br)c(F)cc1O)c1ncccc1O [Compound 68]
*A* 4

*Q* Ok, now CC(C)(C)O/N=C(/c1cc(C(F)(F)F)ccc1O)c1ncccc1O [Compound 4]
*A* -2

*Q* Ok, now CC(C)(C)O/N=C(/c1cc(F)c(F)cc1O)c1ncccc1O [Compound 34]
*A* 4

*Q* Ok, now CC(C)(C)O/N=C(/c1cc(Cl)c(F)cc1O)c1ncccc1O [Compound 36]
*A* 0

*Q* Ok, now CC(C)(C)O/N=C(/c1cc(Cl)c(Cl)cc1O)c1ncccc1O [Compound 32]
*A* -2

*Q* Ok, now Cc1cc(O)c(/C(=N/OC(C)(C)C)c2ncccc2O)cc1C [Compound 106]
*A* 0

Values from patent US5716971A
